Molecular target: Histone deacetylase 2 (Homo sapiens)
Sequence (Q92769 whole entry): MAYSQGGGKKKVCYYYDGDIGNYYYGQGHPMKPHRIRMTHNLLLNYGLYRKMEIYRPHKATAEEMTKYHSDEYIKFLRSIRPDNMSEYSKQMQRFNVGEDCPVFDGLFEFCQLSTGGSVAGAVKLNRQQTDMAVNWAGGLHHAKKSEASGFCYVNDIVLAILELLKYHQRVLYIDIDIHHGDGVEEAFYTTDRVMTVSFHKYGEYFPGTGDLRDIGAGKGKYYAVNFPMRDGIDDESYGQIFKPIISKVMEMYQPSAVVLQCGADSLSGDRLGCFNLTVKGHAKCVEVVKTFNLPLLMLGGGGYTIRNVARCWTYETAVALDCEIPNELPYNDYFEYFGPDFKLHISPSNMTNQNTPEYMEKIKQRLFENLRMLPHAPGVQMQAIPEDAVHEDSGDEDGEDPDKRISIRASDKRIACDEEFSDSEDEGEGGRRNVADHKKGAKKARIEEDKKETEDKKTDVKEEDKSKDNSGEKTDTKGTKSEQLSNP
Assay: Inhibition of C-terminal GST-tagged full-length recombinant human HDAC2 expressed in baculovirus infected Sf9 insect cells using Ac-Leu-Gly-Lys(Ac)-AMC as substrate incubated for 30 mins by fluorescence based assay
IC50 values for the molecules below.
Field format: number, assumed nM, no unit text.

- structureAsSmiles: "COc1cc2c(cc1-c1c(C)noc1C)[nH]c1nc(C)nc(NCCCCCCC(=O)NO)c12"
  studySystem: "Histone deacetylase 2 (Homo sapiens)"
  measurement: 85

Lab note: measured IC50 of COc1cc2c(cc1-c1c(C)noc1C)[nH]c1ncnc(NCCCCCCC(=O)NO)c12 was 152

---

Biological target: Bromodomain-containing protein 4 (Homo sapiens)
Assay: Inhibition of recombinant BRD4 (unknown origin) incubated for 120 mins by TR-FRET assay relative to control
Set-up: concentration or dose not given beside the values
Quick reference for inhibition among some molecules
Report only the number, with the unit % understood.

- structureAsSmiles: "COc1cc2c(cc1-c1c(C)noc1C)[nH]c1nc(C)nc(NCCCCCC(=O)Nc3ccc(C(=O)NO)cc3)c12"
  studySystem: "Bromodomain-containing protein 4 (Homo sapiens)"
  valueUnits: "%"
  inhibition: 79.7
- structureAsSmiles: "COc1cc2c(cc1-c1c(C)noc1C)[nH]c1ncnc(Nc3ccc(/C=C/C(=O)NO)cc3)c12"
  studySystem: "Bromodomain-containing protein 4 (Homo sapiens)"
  valueUnits: "%"
  inhibition: 67.5
- structureAsSmiles: "COc1cc2c(cc1-c1c(C)noc1C)[nH]c1nc(C)nc(NCc3ccc(C(=O)NO)cc3)c12"
  studySystem: "Bromodomain-containing protein 4 (Homo sapiens)"
  valueUnits: "%"
  inhibition: 97.5

Let us move to another entry and its inhibition.
Item: COc1cc2c(cc1-c1c(C)noc1C)[nH]c1ncnc(Nc3ccc(C(=O)NO)cc3)c12 | inhibition: 53.4

---

System: Cryptococcus neoformans
Assay: Antifungal activity against Cryptococcus neoformans H99 assessed as fungal growth inhibition measured after 48 hrs by CLSI based micro-dilution broth method
Format: functional
Measured MIC80 values are reported for all entries that follow.

// worked examples, MIC80 included
- structureAsSmiles: "COc1cc2c(cc1-c1c(C)noc1C)[nH]c1nc(C)nc(Nc3cccc(C(=O)NO)c3)c12"
  MIC80: "> 64 µg/mL"
- structureAsSmiles: "COc1cc2c(cc1-c1c(C)noc1C)[nH]c1ncnc(NCCCCCCC(=O)NO)c12"
  MIC80: "8 µg/mL"
- structureAsSmiles: "COc1cc2c(cc1-c1c(C)noc1C)[nH]c1ncnc(NCCCCCC(=O)NO)c12"
  MIC80: "32 µg/mL"
- structureAsSmiles: "COc1cc2c(cc1-c1c(C)noc1C)[nH]c1nc(C)nc(NCCCCCC(=O)Nc3ccc(C(=O)NO)cc3)c12"
  MIC80: "4 µg/mL"
- structureAsSmiles: "COc1cc2c(cc1-c1c(C)noc1C)[nH]c1nc(C)nc(NCc3ccc(C(=O)NO)cc3)c12"
  MIC80: "64 µg/mL"
- structureAsSmiles: "COc1cc2c(cc1-c1c(C)noc1C)[nH]c1nc(C)nc(NCCCCCC(=O)Nc3ccc(/C=C/C(=O)NO)cc3)c12"
  MIC80: "4 µg/mL"
- structureAsSmiles: "COc1cc2c(cc1-c1c(C)noc1C)[nH]c1ncnc(Nc3ccc(C(=O)NO)cc3)c12"
  MIC80: "64 µg/mL"
- structureAsSmiles: "COc1cc2c(cc1-c1c(C)noc1C)[nH]c1nc(C)nc(Nc3ccc(C(=O)NO)cc3)c12"
  MIC80: "> 64 µg/mL"

The measured MIC80 associated with COc1cc2c(cc1-c1c(C)noc1C)[nH]c1nc(C)nc(Nc3cc(C4CC4)nn3C)c12 reads 32 µg/mL

Briefly, MIC80 measured for COc1cc2c(cc1-c1c(C)noc1C)[nH]c1nc(C)nc(Nc3ccc(/C=C/C(=O)NO)cc3)c12 : 16 µg/mL

Source: ChEMBL document CHEMBL5316308
